Tested on: L. donovani promastigotes
Test: Anti-leishmanial screening against L. donovani promastigotes at a single concentration (MTT)
Type: cell-based, Leishmania donovani
Details: Leishmania donovani, 72 h, 72 h at 26 °C, MTT
Endpoint label: inhibition at 100 µM (%)
Number only, in %; omit the unit.

// below: answered compounds
c1ccc(-c2nnc(Sc3cc(N4CCCCC4)ncn3)nc2-c2ccccc2)cc1 : 73.7
Fc1ccc(N2CCN(c3cc(Sc4nnc(-c5ccccc5)c(-c5ccccc5)n4)ncn3)CC2)cc1 : 28.8
N#Cc1cccnc1N1CCN(c2cc(Sc3nnc(-c4ccccc4)c(-c4ccccc4)n3)ncn2)CC1 : 29.8

### Prompt State the recorded inhibition at 100 µM for this entry: Cc1cc(N2CCN(c3cc(Sc4nnc(-c5ccccc5)c(-c5ccccc5)n4)ncn3)CC2)n2ncnc2n1
### Response 32.1
